Target: HER2-ECD (Homo sapiens)
Construct: immobilized extracellular domain of Erb2 (HER2-ECD, Hudziak et al. (1991) J. Biol. Chem. 266:24109-15)
Test: HER2 competition ELISA (block binding of 1.1.FI-Zb to immobilized HER2-ECD)
Settings: read-out: IC50, block binding of 1.1.FI-Zb to immobilized HER2; HER2 competition ELISA, 40 nM biotinylated 1.1.FI-Z
Where no end group is shown, it is not given here.
Parameter: IC50. Scope: all listed entries.
Report only the number, with the unit nM understood.

>  <SUBSTANCE>
1.1.FI-Z: peptide 1.1.FI expressed and secreted from E. coli as a fusion to the Z domain of protein A (QVYESWGCIGPGCACLQACL)

>  <MEAS_VALUE>
50

$$$$

# input for lookup
Incoming: Answer with IC50 of active fraction: HPLC fraction of trypsin-digested 1.1.FI-Z; mass corresponding to HER212 sequence, found to contain dimer (QVYESWGCIGPGCACLQACL; cysteine pairing not given here; also: fraction found to contain dimer) measured for HER2-ECD (Homo sapiens).
Outgoing: 3
